Ref: the supplement of paper PMC6757056

The following variants are shown together with reported FACS-Seq fitted mean (log10) values.
B1: library; a variant is named by its letters at N, in order (parent)
chain: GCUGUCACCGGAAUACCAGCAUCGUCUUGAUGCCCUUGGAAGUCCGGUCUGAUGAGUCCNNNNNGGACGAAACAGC

Variants of: B1
Experiment: FACS-Seq fitted mean relative fluorescence mCherry/BFP with ligand (log10 relative fluorescence); ligand concentration (+) FACS-Seq: 1 mM; higher = higher reporter protein expression
Conditions: HEK293T, ligand present: yes
// return just the number, without any unit appended

{"columns": ["Mutant", "Measurement"],
 "data": [
  ["UCGCA", 0.806],
  ["UACAC", 0.695],
  ["CGGGA", 0.753],
  ["CUCGA", 0.883],
  ["CGACA", 0.769]
]}

Param item = CUCAA ; retrieve measured FACS-Seq fitted mean (log10). 0.914
